These data points were gathered from ChEMBL document CHEMBL4052757.

System: Trypanosoma brucei brucei
experiment.summary: Antitrypanosomal activity against Trypanosoma brucei brucei TC221 after 48 hrs by alamar blue assay
Type: functional
protocol.conditions: TC221, 48 h
recorded.metric: pIC50
Expect pIC50 as a plain number equal to -log10 of the molar concentration.

State pIC50 (Trypanosoma brucei brucei) of `Clc1ccc2c(NCCCCCCNc3c4c(nc5cc(Cl)ccc35)CCCC4)c3c(nc2c1)CCCC3` .
6.19

State pIC50 (Trypanosoma brucei brucei) of CC1CCc2nc3ccccc3c(N)c2C1 (configuration not stated) .
4.80

State pIC50 (Trypanosoma brucei brucei) of `c1ccc2c(NCCCCCCNc3c4c(nc5ccccc35)CCCC4)c3c(nc2c1)CCCC3` .
6.59

State pIC50 (Trypanosoma brucei brucei) of CC1CCc2nc3cc(Cl)ccc3c(N)c2C1 (configuration not stated) .
5.22

State pIC50 (Trypanosoma brucei brucei) of CCCC1CCc2nc3cc(Cl)ccc3c(N)c2C1 (configuration not stated) .
5.59

State pIC50 (Trypanosoma brucei brucei) of `C1=Cc2c(nc3ccccc3c2NCCCCCCCCCNc2c3c(nc4ccccc24)CCC=C3)CC1` .
7.05

State pIC50 (Trypanosoma brucei brucei) of `N=C(N)c1ccc(OCCCCCOc2ccc(C(=N)N)cc2)cc1` .
8.28

State pIC50 (Trypanosoma brucei brucei) of CCC1CCc2nc3ccc(Cl)cc3c(N)c2C1 (configuration not stated) .
5.57

State pIC50 (Trypanosoma brucei brucei) of `c1ccc2c(NCCCCCCCNc3c4c(nc5ccccc35)CCCC4)c3c(nc2c1)CCCC3` .
6.80

State pIC50 (Trypanosoma brucei brucei) of `Nc1c2c(nc3ccccc13)CCCC2=O` .
4.84

State pIC50 (Trypanosoma brucei brucei) of `c1ccc2c(NCCCCCCCCNc3c4c(nc5ccccc35)CCCC4)c3c(nc2c1)CCCC3` .
6.40

State pIC50 (Trypanosoma brucei brucei) of `Nc1c2c(nc3cc(Cl)ccc13)CCCC2` .
4.90

State pIC50 (Trypanosoma brucei brucei) of `c1ccc2c(NCCCCCCCCCCNc3c4c(nc5ccccc35)CCCC4)c3c(nc2c1)CCCC3` .
6.92

State pIC50 (Trypanosoma brucei brucei) of CC1CCc2c(nc3ccccc3c2N)C1 (configuration not stated) .
4.84

State pIC50 (Trypanosoma brucei brucei) of `COc1ccc2nc3c(c(NCCCCCCCCCNc4c5c(nc6ccc(OC)cc46)CCCC5)c2c1)CCCC3` .
6.92

State pIC50 (Trypanosoma brucei brucei) of `C1=Cc2c(nc3ccccc3c2NCCCCCCCCCCNc2c3c(nc4ccccc24)CCC=C3)CC1` .
6.54

State pIC50 (Trypanosoma brucei brucei) of `Nc1c2c(nc3ccccc13)CCCC2` .
4.84

State pIC50 (Trypanosoma brucei brucei) of CCC1CCc2nc3cc(Cl)ccc3c(N)c2C1 (configuration not stated) .
5.55

State pIC50 (Trypanosoma brucei brucei) of `C1=Cc2c(nc3ccccc3c2NCCCCCCCNc2c3c(nc4ccccc24)CCC=C3)CC1` .
8.00

State pIC50 (Trypanosoma brucei brucei) of `CC1(C)CCc2c(nc3cc(Cl)ccc3c2NCCCCCCNc2c3c(nc4cc(Cl)ccc24)CC(C)(C)CC3)C1` .
6.19

State pIC50 (Trypanosoma brucei brucei) of `C1=Cc2c(nc3ccccc3c2NCCCCCCNc2c3c(nc4ccccc24)CCC=C3)CC1` .
6.29

State pIC50 (Trypanosoma brucei brucei) of CCCC1CCc2nc3ccc(Cl)cc3c(N)c2C1 (configuration not stated) .
5.57
